# systemName: TtgR (Pseudomonas putida)
# Construct: full-length, ttgR in pET29a+, expressed in E. coli B834(DE3); heparin and gel filtration purification; homodimer; residues about 10-210 seen in crystals
# assayExplanation: isothermal titration calorimetry
reportedEndpoint: pKd
Numbers only, as −log10 of the molar value.

What the record says about O=C(CCc1ccc(O)cc1)c1c(O)cc(O)cc1O [phloretin] : pKd is 7.30

All figures here come from paper PMC2756574.
